Test system: MV4-11
Assay: CellTox Green cytotoxicity fluorescence relative to DMSO vehicle (fold of vehicle RFU); higher = more cell death (loss of membrane integrity), active = 2 or more
Details: 1 µM; 72 h
Known CellTox Green cytotoxicity fluorescence of a selection of compounds

smiles_str	CellTox Green cytotoxicity fluorescence
COc1cccc(-n2c(=O)[nH]c3cc(Cl)n(-c4ccc(-c5cccc(OC)c5O)cc4)c3c2=O)c1	1
CC[C@H](NC(=O)[C@H](C)NC)C(=O)N1C[C@@H](O)C[C@H]1Cc1c(-c2[nH]c3cc(F)ccc3c2C[C@@H]2C[C@H](O)CN2C(=O)[C@H](CC)NC(=O)[C@H](C)NC)[nH]c2cc(F)ccc12	1.32
CCOc1cc(C(C)(C)C)ccc1C1=N[C@@](C)(c2ccc(Cl)cc2)[C@@](C)(c2ccc(Cl)cc2)N1C(=O)N1CCN(CCCS(C)(=O)=O)CC1	2.02
CC(C)(C)C[C@@H]1N[C@@H](C(=O)N[C@H]2CC[C@H](O)CC2)[C@H](c2cccc(Cl)c2F)[C@]12C(=O)Nc1cc(Cl)ccc12	2.49
